src = patent US11807625B2

protocolText: PK of compound of Formula (Ia) after single subcutaneous dose of solution formulations in beagle dogs
Format: in vivo
testConditions: male, beagle, dog, plasma, sc, 12 mg/kg, 8.00 h; individual dogs; SC 12 mg/kg; solution T, 400 mg/mL

{"querySmiles": "CC(C)(C#Cc1ccc(-c2ccc(Cl)c3c(NS(C)(=O)=O)nn(CC(F)(F)F)c23)c([C@H](Cc2cc(F)cc(F)c2)NC(=O)Cn2nc(C(F)(F)F)c3c2C(F)(F)[C@@H]2C[C@H]32)n1)S(C)(=O)=O", "concentration at 8 h / nM": 83.9}

----------
protocolText: PK of compound of Formula (Ia) after single subcutaneous dose of solution formulations in Wistar Han rats
Assay type: in vivo
testConditions: male, Wistar Han, rat, plasma, sc, 50 mg/kg, Wistar Han rats, SC 50 mg/kg, 500 mg/mL solution X (5.00% ethanol, 1.91% poloxamer 188), 3.00 h, Mean n = 3
Description: Formulations containing the compound of Formula (Ia), or a pharmaceutically acceptable salt thereof, were prepared as solutions and optionally administered subcutaneously or intramuscularly to rats, rabbits, and/or dogs. A solution of about 400 mg/mL of the compound of Formula (Ia) having 19.14 w/w % water, 40.66 w/w % PEG 300, 35.20 w/w % of a sodium salt of a compound of Formula (Ia), and 5.00% ethanol was prepared. […]

{"molecule": "CC(C)(C#Cc1ccc(-c2ccc(Cl)c3c(NS(C)(=O)=O)nn(CC(F)(F)F)c23)c([C@H](Cc2cc(F)cc(F)c2)NC(=O)Cn2nc(C(F)(F)F)c3c2C(F)(F)[C@@H]2C[C@H]32)n1)S(C)(=O)=O [compound of Formula (Ia)]", "concentration at 3 h (nM)": 77.6}
